The measurements presented in this section are drawn from patent US10815224B2.

What log10 of IC50 was measured for each of the following?
Target: PAR4 (Homo sapiens)
Construct: expressed in transfected cells; host or cells: HEK293 PAR4 Clone 1.2A (BMS Arctic ID 383940)
Sequence (Q96RI0 18-385): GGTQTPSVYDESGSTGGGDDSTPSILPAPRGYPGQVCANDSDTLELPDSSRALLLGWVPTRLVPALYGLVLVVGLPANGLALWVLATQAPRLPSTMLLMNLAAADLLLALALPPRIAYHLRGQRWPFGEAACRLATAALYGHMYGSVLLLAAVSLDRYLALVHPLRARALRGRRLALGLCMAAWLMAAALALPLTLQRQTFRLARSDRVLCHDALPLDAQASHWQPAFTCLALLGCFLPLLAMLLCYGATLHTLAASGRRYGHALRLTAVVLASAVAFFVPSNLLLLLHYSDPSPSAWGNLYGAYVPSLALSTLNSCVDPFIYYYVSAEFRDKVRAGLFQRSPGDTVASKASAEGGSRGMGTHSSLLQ
Assay: PAR4 FLIPR assay: calcium mobilization in PAR4-expressing HEK293 cells
Assay type: cell-based
Form field - Quantity: IC50; Unit: nM; Scale: log10

Examples with answers:
COCc1cnc2c(-c3ncc(-c4ccc(OC)cn4)s3)cc(C)cc2n1 [Example 53] ... 2.46
Cc1cc(-c2ncc(-c3cccc(O)c3)s2)c2ncc(OC(F)F)nc2c1 [Example 51] ... 0.85
Cc1cc(-c2nc(C3CC3)cs2)c2ncc(OC(F)F)nc2c1 [Example 10] ... 2.48
Cc1cc(-c2nc(C)c(-c3cccc(O)c3)s2)c2ncc(OC(F)F)nc2c1 [Example 6] ... 0.00
Cc1cc(-c2ncc(-c3ccncc3)s2)c2ncc(OC(F)F)nc2c1 [Example 43] ... 2.52
Cc1cc(-c2ccsn2)c2ncc(OC(F)F)nc2c1 [Example 5] ... 2.97

// for each molecule in input: emit log10 of IC50
1. Cc1cc(-c2nccs2)c2ncc(OC(F)F)nc2c1 [Example 34]
2. Cc1cc(-c2ncc(-c3cc(O)ccc3F)s2)c2ncc(OC(F)F)nc2c1 [Example 25]
3. Cc1cc(-c2ncc(-c3cc(O)cc(F)c3)s2)c2ncc(OC(F)F)nc2c1 [Example 26]

1: 2.88; 2: 1.18; 3: 1.36
